List of IC50 tested on ROCK2 (Homo sapiens, UniProt O75116).
Sequence (O75116 11-552): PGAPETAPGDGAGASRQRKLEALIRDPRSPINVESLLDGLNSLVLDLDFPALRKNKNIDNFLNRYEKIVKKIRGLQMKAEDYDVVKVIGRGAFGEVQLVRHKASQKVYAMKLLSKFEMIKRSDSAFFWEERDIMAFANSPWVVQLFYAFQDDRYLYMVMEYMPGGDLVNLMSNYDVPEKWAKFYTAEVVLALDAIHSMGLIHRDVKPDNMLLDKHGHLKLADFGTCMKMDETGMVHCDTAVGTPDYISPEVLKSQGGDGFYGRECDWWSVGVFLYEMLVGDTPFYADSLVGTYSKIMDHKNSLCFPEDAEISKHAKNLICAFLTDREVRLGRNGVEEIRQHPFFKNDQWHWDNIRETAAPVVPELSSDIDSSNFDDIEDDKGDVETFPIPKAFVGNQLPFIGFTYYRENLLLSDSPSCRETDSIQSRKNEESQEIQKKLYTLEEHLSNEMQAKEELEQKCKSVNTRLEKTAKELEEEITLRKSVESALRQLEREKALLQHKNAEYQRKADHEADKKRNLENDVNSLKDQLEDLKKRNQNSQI

Use the examples below as a reference point.
Req: Quick one: IC50 for CCn1nc(-c2ccc(C3CCC(C)NC3)cc2)nc1Nc1cc2c(cc1C)C(=O)NC2C (centres unmarked) ?
Resp: > 10000 nM

Req: Quick one: IC50 for CCn1nc(-c2ccc(-n3cnc(C4CC4)c3)cc2C)nc1Nc1cc2c(cc1C)C(=O)N[C@@H]2C ?
Resp: < 300 nM

Req: Quick one: IC50 for CCn1nc(-c2ccc(-c3ccc(C4CC4)cn3)c(C)c2)nc1Nc1ccc2c(c1)CNC2=O ?
Resp: < 300 nM

Req: Quick one: IC50 for CCn1nc(-c2ccc(-c3ccn(C)c3)cc2)nc1Nc1cc2c(cc1C)C(=O)NC2C (centres unmarked) ?
Resp: < 300 nM

Let us move to another entry and its IC50.
Req: Quick one: IC50 for CCn1nc(-c2ccc(-c3ccc(C4CC4)nc3)c(C)c2)nc1Nc1ccc2c(c1)CNC2=O ?
Resp: < 300 nM

====

List of IC50 tested on ROCK2 (Homo sapiens, UniProt O75116).

Use the examples below as a reference point.
Req: Quick one: IC50 for CCn1nc(-c2ccc(-c3ccncc3)cc2)nc1Nc1ccc2c(c1)CNC2=O ?
Resp: < 0.3 µM

Req: Quick one: IC50 for Cn1nc(-c2cccc(C(=O)NCC(F)(F)F)c2)nc1Nc1ccc2c(c1)CNC2=O ?
Resp: 3 to 10 µM

Req: Quick one: IC50 for CCc1cn(-c2ccc(-c3nc(Nc4ccc5c(c4)CNC5=O)n(C)n3)cc2)c(C)n1 ?
Resp: < 0.3 µM

Req: Quick one: IC50 for CCn1nc(-c2ccc(-c3ccc(C)nc3)c(C)c2)nc1Nc1ccc2c(c1)C1(CC1)NC2=O ?
Resp: < 0.3 µM

Req: Quick one: IC50 for CCn1nc(-c2ccc(-c3ccccn3)cc2)nc1Nc1ccc2c(c1)CNC2=O ?
Resp: < 0.3 µM

Further cases:
Req: Quick one: IC50 for Cn1nc(-c2ccc(-n3cnc(C4CC4)c3)cc2)nc1Nc1ccc2c(c1)C(C)(C)NC2=O ?
Resp: < 0.3 µM
